B1: library; numbered along this chain (parent)
chain: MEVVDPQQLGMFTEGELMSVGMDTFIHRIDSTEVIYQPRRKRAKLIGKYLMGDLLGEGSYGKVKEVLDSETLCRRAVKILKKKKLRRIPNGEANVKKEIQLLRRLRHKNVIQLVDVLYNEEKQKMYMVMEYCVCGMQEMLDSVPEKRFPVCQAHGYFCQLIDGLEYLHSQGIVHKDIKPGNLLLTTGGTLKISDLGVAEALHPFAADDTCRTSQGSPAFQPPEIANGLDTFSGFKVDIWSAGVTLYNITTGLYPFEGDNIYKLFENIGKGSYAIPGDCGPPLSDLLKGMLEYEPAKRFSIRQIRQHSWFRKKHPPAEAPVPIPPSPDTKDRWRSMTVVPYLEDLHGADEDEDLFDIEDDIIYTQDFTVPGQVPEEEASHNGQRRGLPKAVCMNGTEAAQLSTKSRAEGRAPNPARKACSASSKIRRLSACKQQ

Variants of: B1
Assay comment: STK11 functional score (HeLa growth suppression), rescaled enrichment; synonymous median = 1, nonsense median = 0 (normalised score)
Measurement context: with HeLa; variant type: missense
Assign yes (1) to entries whose STK11 functional score meets or exceeds 1; assign no (0) to the rest.

variant_code=G187P qualitative_label="yes (1)"

Exam item: Would you say D350G shows STK11 functional score at minimum 1?
Marked response: yes (1)

Exam item: Would you say A225P shows STK11 functional score at minimum 1?
Marked response: yes (1)
